The origin of these recorded values is paper PMC4551390.

# Assay Protocol: Plasma pharmacokinetics after 2-hr IV infusion
# Settings: human, plasma, intravenous, 10 mg/m2, T1/2, Mean, Day 1, 10 mg/m^2
Measured Quantity: half-life (h)
Could you give me the number in h? Just the number is fine.

Please look up its half-life: CCc1cnn2c(NCc3ccc[n+]([O-])c3)cc(N3CCCC[C@H]3CCO)nc12 2.85

---

# Assay Protocol: Plasma pharmacokinetics after 2-hr IV infusion
# Settings: human, plasma, intravenous, 17 mg/m2, Cmax, Mean, Day 1, 17 mg/m^2
Measured Quantity: Cmax
Kindly report the value followed by its unit.

Please look up its Cmax: CCc1cnn2c(NCc3ccc[n+]([O-])c3)cc(N3CCCC[C@H]3CCO)nc12 624 ng/mL

---

# Assay Protocol: Plasma pharmacokinetics after 2-hr IV infusion
# Settings: human, plasma, intravenous, 17 mg/m2, AUC(I), Mean, Day 1, 17 mg/m^2
Measured Quantity: AUC (ng·h/mL)
Could you give me the number in ng·h/mL? Just the number is fine.

Please look up its AUC: CCc1cnn2c(NCc3ccc[n+]([O-])c3)cc(N3CCCC[C@H]3CCO)nc12 1290

---

# Assay Protocol: Plasma pharmacokinetics after 2-hr IV infusion
# Settings: human, plasma, intravenous, 14 mg/m2, T1/2, Mean, Day 1, 14 mg/m^2
Measured Quantity: half-life
Kindly report the value followed by its unit.

Please look up its half-life: CCc1cnn2c(NCc3ccc[n+]([O-])c3)cc(N3CCCC[C@H]3CCO)nc12 2.85 h

---

# Assay Protocol: Plasma pharmacokinetics after 2-hr IV infusion
# Settings: human, plasma, intravenous, 7 mg/m2, AUC(I), Mean, Day 15, 7 mg/m^2
Measured Quantity: AUC (ng·h/mL)
Could you give me the number in ng·h/mL? Just the number is fine.

Please look up its AUC: CCc1cnn2c(NCc3ccc[n+]([O-])c3)cc(N3CCCC[C@H]3CCO)nc12 [Dinaciclib] 294

---

# Assay Protocol: Plasma pharmacokinetics after 2-hr IV infusion
# Settings: human, plasma, intravenous, 7 mg/m2, AUC(I), Mean, Day 1, 7 mg/m^2
Measured Quantity: AUC (ng·h/mL)
Could you give me the number in ng·h/mL? Just the number is fine.

Please look up its AUC: CCc1cnn2c(NCc3ccc[n+]([O-])c3)cc(N3CCCC[C@H]3CCO)nc12 403

---

# Assay Protocol: Plasma pharmacokinetics after 2-hr IV infusion
# Settings: human, plasma, intravenous, 5 mg/m2, T1/2, Mean, Day 1, 5 mg/m^2
Measured Quantity: half-life (h)
Could you give me the number in h? Just the number is fine.

Please look up its half-life: CCc1cnn2c(NCc3ccc[n+]([O-])c3)cc(N3CCCC[C@H]3CCO)nc12 [Dinaciclib] 2.45

---

# Assay Protocol: Plasma pharmacokinetics after 2-hr IV infusion
# Settings: human, plasma, intravenous, 5 mg/m2, Cmax, Mean, Day 1, 5 mg/m^2
Measured Quantity: Cmax (ng/mL)
Could you give me the number in ng/mL? Just the number is fine.

Please look up its Cmax: CCc1cnn2c(NCc3ccc[n+]([O-])c3)cc(N3CCCC[C@H]3CCO)nc12 [Dinaciclib] 95.4

---

# Assay Protocol: Plasma pharmacokinetics after 2-hr IV infusion
# Settings: human, plasma, intravenous, 14 mg/m2, AUC(I), Mean, Day 15, 14 mg/m^2
Measured Quantity: AUC
Kindly report the value followed by its unit.

Please look up its AUC: CCc1cnn2c(NCc3ccc[n+]([O-])c3)cc(N3CCCC[C@H]3CCO)nc12 827 ng·h/mL
